Provide the reported kon of each item.
# SYSTEM_TESTED: T1, PVR conjugated to Histidine tag (PVR-HIS, Sino Cat. no. 10109-H08H) (Homo sapiens (Human), UniProt P15151 21-343)
# T1 construct: Bought reagent; also called PVR-HIS tagged
# T1 sequence: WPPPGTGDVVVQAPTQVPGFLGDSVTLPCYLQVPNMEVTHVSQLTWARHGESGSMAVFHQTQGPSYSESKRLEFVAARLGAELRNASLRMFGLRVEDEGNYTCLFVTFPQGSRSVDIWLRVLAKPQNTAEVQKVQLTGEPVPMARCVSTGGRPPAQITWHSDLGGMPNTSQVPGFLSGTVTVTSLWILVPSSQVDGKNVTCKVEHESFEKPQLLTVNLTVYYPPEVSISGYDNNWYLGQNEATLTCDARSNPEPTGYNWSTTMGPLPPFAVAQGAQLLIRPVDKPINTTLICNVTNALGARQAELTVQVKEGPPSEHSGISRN
# EXPERIMENT_DESCRIPTION: SPR (Biacore T200), antibody captured on Protein A chip, PVR-HIS as analyte, 1:1 binding
Write the number in M⁻¹ s⁻¹ without appending the unit.

Task: kon lookup needed for VH0/Vκ0 Thr56 (antibody, V domains shown, chimeric 5B9 N56 substitution variant; also called N56T) VH: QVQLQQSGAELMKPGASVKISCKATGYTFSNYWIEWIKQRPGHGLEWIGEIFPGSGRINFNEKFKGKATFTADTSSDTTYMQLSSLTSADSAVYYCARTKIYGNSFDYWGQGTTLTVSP VL: DIMMTQSHKFMSTSVGDRVNITCKASQDVGTAVVWYQQKPGQSPKLLIYWASSRHTGVPDRFTGSGSGTDFTLTISNVQSEDLSDYFCQQYSRYPLTFGAGTKLELK , thanks.
Output: 156000

Task: kon lookup needed for VH0/Vκ0 Ala56 (antibody, V domains shown, chimeric 5B9 N56 substitution variant; also called N56A) VH: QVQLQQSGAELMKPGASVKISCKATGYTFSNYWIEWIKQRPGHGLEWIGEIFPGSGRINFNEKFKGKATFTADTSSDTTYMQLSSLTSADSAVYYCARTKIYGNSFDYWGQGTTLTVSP VL: DIMMTQSHKFMSTSVGDRVNITCKASQDVGTAVVWYQQKPGQSPKLLIYWASSRHAGVPDRFTGSGSGTDFTLTISNVQSEDLSDYFCQQYSRYPLTFGAGTKLELK , thanks.
Output: 154000

Task: kon lookup needed for chimeric 5B9 N56D variant, IgG4 (S241P) (antibody, name in Kabat numbering, V domains shown, Human IgG4 (S241P) constant region) VH: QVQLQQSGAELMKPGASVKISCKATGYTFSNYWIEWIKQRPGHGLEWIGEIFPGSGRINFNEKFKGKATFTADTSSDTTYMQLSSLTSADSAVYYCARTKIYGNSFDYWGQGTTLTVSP VL: DIMMTQSHKFMSTSVGDRVNITCKASQDVGTAVVWYQQKPGQSPKLLIYWASSRHDGVPDRFTGSGSGTDFTLTISNVQSEDLSDYFCQQYSRYPLTFGAGTKLELK , thanks.
Output: 195000
